- EXPERIMENTAL_DETAILS: in vitro
- Format: cell-based
- PARTICULARS: human
MEASURED_ENDPOINT: viability at 10 µM (%)
Write it as a number; the unit % goes unstated.

Query string: Quick check: viability at 10 µM of Nc1c2c(nc3ccccc13)CCCC2 [Tacrine, tacrine, reference compound] ?
Result string: 108

* * *

- EXPERIMENTAL_DETAILS: in vitro
- Format: cell-based
- PARTICULARS: human
MEASURED_ENDPOINT: viability at 3 µM (%)
Quick note: give the figure in %, leave out the unit.

Query string: Tell me the measured viability at 3 µM of Nc1c2c(nc3ccccc13)CCCC2 [Tacrine, tacrine, reference compound] , please.
Result string: 114
